Listed here: items and their measured thermal stability score.
Test system: HeLa Kyoto;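 also: synchronized HeLa Kyoto cells, proteins quantified by TMT10plex mass spectrometry, three biological replicates, mitosis taken 0.5 h after nocodazole release, G1/S directly after double thymidine block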
Experiment: thermal stability score vs G1/S (z-score of summed log2 fold changes over temperatures); higher = more thermally stable than in G1/S
Conditions: cell cycle stage: early G1 (4.5 h after nocodazole release)
Quick one: just the number, no unit, thanks!

The cases that follow already have their thermal stability score on record.
MLSSTAMYSAPGRDLGMEPHRAAGPLQLRFSPYVFNGGTILAIAGEDFAIVASDTRLSEGFSIHTRDSPKCYKLTDKTVIGCSGFHGDCLTLTKIIEARLKMYKHSNNKAMTTGAIAAMLSTILYSRRFFPYYVYNIIGGLDEEGKGAVYSFDPVGSYQRDSFKAGGSASAMLQPLLDNQVGFKNMQNVEHVPLSLDRAMRLVKDVFISAAERDVYTGDALRICIVTKEGIREETVSLRKD [PSMB1] | -1.78
MVFPAKRFCLVPSMEGVRWAFSCGTWLPSRAEWLLAVRSIQPEEKERIGQFVFARDAKAAMAGRLMIRKLVAEKLNIPWNHIRLQRTAKGKPVLAKDSSNPYPNFNFNISHQGDYAVLAAEPELQVGIDIMKTSFPGRGSIPEFFHIMKRKFTNKEWETIRSFKDEWTQLDMFYRNWALKESFIKAIGVGLGFELQRLEFDLSPLNLDIGQVYKETRLFLDGEEEKEWAFEESKIDEHHFVAVALRKPDGSRHQDVPSQDDSKPTQRQFTILNFNDLMSSAVPMTPEDPSFWDCFCFTEEIPIRNGTKS [AASDHPPT] | 0.145
MADDLGDEWWENQPTGAGSSPEASDGEGEGDTEVMQQETVPVPVPSEKTKQPKECFLIQPKERKENTTKTRKRRKKKITDVLAKSEPKPGLPEDLQKLMKDYYSSRRLVIELEELNLPDSCFLKANDLTHSLSSYLKEICPKWVKLRKNHSEKKSVLMLIICSSAVRALELIRSMTAFRGDGKVIKLFAKHIKVQAQVKLLEKRVVHLGVGTPGRIKELVKQGGLNLSPLKFLVFDWNWRDQKLRRMMDIPEIRKEVFELLEMGVLSLCKSESLKLGLF [CMSS1] | 1.03
MAERGYSFSLTTFSPSGKLVQIEYALAAVAGGAPSVGIKAANGVVLATEKKQKSILYDERSVHKVEPITKHIGLVYSGMGPDYRVLVHRARKLAQQYYLVYQEPIPTAQLVQRVASVMQEYTQSGGVRPFGVSLLICGWNEGRPYLFQSDPSGAYFAWKATAMGKNYVNGKTFLEKRYNEDLELEDAIHTAILTLKESFEGQMTEDNIEVGICNEAGFRRLTPTEVKDYLAAIA [PSMA2] | -1.52

# lookup: thermal stability score of MVEADRPGKLFIGGLNTETNEKALEAVFGKYGRIVEVLLMKDRETNKSRGFAFVTFESPADAKDAARDMNGKSLDGKAIKVEQATKPSFESGRRGPPPPPRSRGPPRGLRGGRGGSGGTRGPPSRGGHMDDGGYSMNFNMSSSRGPLPVKRGPPPRSGGPPPKRSAPSGPVRSSSGMGGRAPVSRGRDSYGGPPRREPLPSRRDVYLSPRDDGYSTKDSYSSRDYPSSRDTRDYAPPPRDYTYRDYGHSSSRDDYPSRGYSDRDGYGRDRDYSDHPSGGSYRDSYESYGNSRSAPPTRGPPPSYGGSSRYDDYSSSRDGYGGSRDSYSSSRSDLYSSGRDRVGRQERGLPPSMERGYPPPRDSYSSSSRGAPRGGGRGGSRSDRGGGRSRY [RBMX] -0.25
